Test: yeast display, Sf9 membrane polyspecificity reagent, FACS + sequencing; frameworks hold sequencing errors
measured_endpoint: polyreactivity (PSR sort gate)

Recorded results for 4 sequences are shown here.
ordered_residues	polyreactivity (PSR sort gate)
QVQLVESGGGLVQAGGSLRLSCAASGFIFSYNAMGWYRQAPGKERELVAAISSIGSGTYYADSVKGRFTISRDNAKNTVYLQMNSLKPEDTAVYYCAKYLRPRIGSRYYYWGQGTQVTVSS	high polyreactivity
QVQLVESGGGLVQAGGSLRLSCAASGSTFTYYTMGWYRQAPGKERELVAAISRTTGSTYYADSVKGRFTISRDNAKNTVYLQLNSLKPEDTAVDYCAAQSYKILLYFIGTAGDGYWGQGTQVTVSS	low polyreactivity
QVHLVESGGGLVQAGGSLRLRCAASGFILGAYAMGWYRQAPGKERELDAAISYSGGRTYYADSVKGRFTISRDNAKNTVYLQMNSQNPEDTAVYYCAADWYYGYFFSVAGEHEYCGQGTQVTVSS	high polyreactivity
QVQLVESGGGLVQAGGSLRLSCAASGSTFTSYAMGWYRQAPGKERELVASITRSGGRTYYADSVKGRFTISRDNAKNTVYLQMNSLKPEDTAVYYCARRYPGGYYWGQGTQVTVSS	high polyreactivity

Query block: I'd like to know its polyreactivity (PSR sort gate). The sequence in question is `QVQLVESGGGLVQAGGSLRLSCAASGSTFYYYVMGWYRQAPGKERELVAAISRGGGSTYYADSVKGRFTISRDNAKNTVYLQMNSLKPEDTAVYYCAAASYYVEGDYWGQGTQVTVSS`
Result block: low polyreactivity
